# run_description: in vitro
# test_context: human, decrease of viability of healthy lymphocytes, over 4 lymphocyte preparations
property_label: cytotoxicity at 72 h, 1 μM

record_smiles: C=CC[N+](CC)(CC)CC/C=C1/c2ccccc2Sc2ccc(C)cc21.[Br-]
property_label: cytotoxicity at 72 h, 1 μM
obs_value: 3 to 13%

###

We begin with a simple list: items and their reported cytotoxicity at 72 h, 50 μM.
# run_description: in vitro
# test_context: human, decrease of viability of healthy lymphocytes
property_label: cytotoxicity at 72 h, 50 μM

molecule: C=CC[N+](CC)(CC)CC/C=C1/c2ccccc2Sc2ccc(C)cc21.[Br-] [CCcompound26]
property_label: cytotoxicity at 72 h, 50 μM
obs_value: 100%

molecule: CC[N+](C)(CC)CCOCc1ccc2sc3ccccc3c(=O)c2c1 [CCcompound3]
property_label: cytotoxicity at 72 h, 50 μM
obs_value: 6%

###

# run_description: in vitro
# test_context: human, Inhibition (%) of viability
property_label: cytotoxicity at 72 h, 1 μM (%)

compound: CC[N+](C)(CC)CCOCc1ccc2sc3ccccc3c(=O)c2c1 [CCcompound3]
property_label: cytotoxicity at 72 h, 1 μM
obs_value: 0

Where these numbers come from: patent US20080207738A1
